Tested on: MS2 coat protein
Assay: apparent KD of MS2 coat protein, switch ON state; designed switch direction (-1 OFF switch, 1 ON switch): 1; higher = weaker reporter binding
Settings: FMN input: 0 or 200 uM; Eterna round: R93 (includes R88 designs)
readout: apparent KD of MS2 coat protein (nM)
Quick note: give the figure in nM, leave out the unit.

Some solved entries appear below for comparison.
sequence.code: AGGAGACAUGAGGAUCACCCAUGUGAGAAGAGGCGAGGAUAUCGAAAGAAAGAAGAGAAACGAGAAGGCGCGAGUC [salish99-SS1-030]
recorded.number: 25.6
--
sequence.code: AAAAUACAUGAGGAUCACCCAUGUGAGAAAAACGCAGGAUAUGCCCGAAAAAAAAGGCGGGCAGAAGGGUGAAAAA [SameState1-II]
recorded.number: 35.5

Now look at this one.
### Prompt Query: apparent KD of MS2 coat protein; subject: AGGAAACAUGAGGAUCACCCAUGUAAAAAUAUGGGAGGAUAUGCGAAAAGAAACAAAGAAGCAGAAGGCCUAAAAA [75%, Ex sub1, 21]
### Response 21.9
